Study target: T1, hRET.mFc (human)
T1 construct: also called dimeric human RET
Procedure details: SPR Biacore T200, mAb capture, 37 C
Listed next: entries and their corresponding pKd.
pKd is defined as minus the log10 of a concentration measured in mol/L.

Record excerpt, results attached:
H4H8084P (antibody, human IgG4, V domains shown, human IgG4 Fc (H4H prefix)) VH: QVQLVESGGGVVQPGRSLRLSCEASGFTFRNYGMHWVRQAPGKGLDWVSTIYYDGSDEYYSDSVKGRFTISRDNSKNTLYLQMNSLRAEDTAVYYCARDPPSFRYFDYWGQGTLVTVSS VL: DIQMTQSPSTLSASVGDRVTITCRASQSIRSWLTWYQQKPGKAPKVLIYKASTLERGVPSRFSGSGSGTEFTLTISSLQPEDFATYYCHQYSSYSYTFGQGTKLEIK: 9.09
H4H8058P (antibody, human IgG4, V domains shown, human IgG4 Fc (H4H prefix)) VH: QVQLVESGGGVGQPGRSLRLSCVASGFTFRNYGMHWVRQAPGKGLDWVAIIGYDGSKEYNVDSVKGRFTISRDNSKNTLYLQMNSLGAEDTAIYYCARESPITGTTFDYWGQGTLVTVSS VL: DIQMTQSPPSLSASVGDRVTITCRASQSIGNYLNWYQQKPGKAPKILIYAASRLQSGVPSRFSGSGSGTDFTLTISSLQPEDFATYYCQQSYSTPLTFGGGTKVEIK: 8.66
H4H8087P (antibody, human IgG4, V domains shown, human IgG4 Fc (H4H prefix)) VH: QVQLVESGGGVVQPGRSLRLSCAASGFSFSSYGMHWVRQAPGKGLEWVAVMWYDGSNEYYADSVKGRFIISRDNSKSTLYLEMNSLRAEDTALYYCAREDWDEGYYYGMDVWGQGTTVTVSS VL: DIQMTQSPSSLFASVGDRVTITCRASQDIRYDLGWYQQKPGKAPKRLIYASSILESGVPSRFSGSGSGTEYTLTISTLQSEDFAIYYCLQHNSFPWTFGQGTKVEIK: 9.46
H4H8045P (antibody, human IgG4, V domains shown, human IgG4 Fc (H4H prefix)) VH: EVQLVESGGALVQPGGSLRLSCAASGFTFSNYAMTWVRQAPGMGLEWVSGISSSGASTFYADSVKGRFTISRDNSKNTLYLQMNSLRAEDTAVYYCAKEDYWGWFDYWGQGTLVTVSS VL: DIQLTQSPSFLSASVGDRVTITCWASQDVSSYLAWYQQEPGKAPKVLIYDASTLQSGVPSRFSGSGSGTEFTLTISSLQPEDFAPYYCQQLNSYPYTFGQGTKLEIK: 9.08

The reported pKd of the binder H4H8046P (antibody, human IgG4, V domains shown, human IgG4 Fc (H4H prefix)) VH: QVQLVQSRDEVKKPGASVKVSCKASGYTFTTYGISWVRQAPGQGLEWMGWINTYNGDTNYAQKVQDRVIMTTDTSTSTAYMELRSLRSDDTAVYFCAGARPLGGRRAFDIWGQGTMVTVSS VL: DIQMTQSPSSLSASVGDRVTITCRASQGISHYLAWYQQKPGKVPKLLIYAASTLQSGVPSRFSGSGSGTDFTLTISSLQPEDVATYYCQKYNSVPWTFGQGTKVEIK was 8.69

The reported pKd of the binder H4H8056P (antibody, human IgG4, V domains shown, human IgG4 Fc (H4H prefix)) VH: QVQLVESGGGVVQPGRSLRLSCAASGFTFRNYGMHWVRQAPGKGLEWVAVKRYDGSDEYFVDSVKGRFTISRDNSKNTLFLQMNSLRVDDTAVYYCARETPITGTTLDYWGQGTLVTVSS VL: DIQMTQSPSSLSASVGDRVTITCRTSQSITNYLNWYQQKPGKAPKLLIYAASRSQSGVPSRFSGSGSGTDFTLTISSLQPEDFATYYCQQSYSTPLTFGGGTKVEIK was 8.25

The reported pKd of the binder H4H8071P (antibody, human IgG4, V domains shown, human IgG4 Fc (H4H prefix)) VH: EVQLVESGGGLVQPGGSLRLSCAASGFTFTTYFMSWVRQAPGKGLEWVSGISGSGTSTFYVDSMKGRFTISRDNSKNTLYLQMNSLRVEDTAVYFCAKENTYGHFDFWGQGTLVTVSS VL: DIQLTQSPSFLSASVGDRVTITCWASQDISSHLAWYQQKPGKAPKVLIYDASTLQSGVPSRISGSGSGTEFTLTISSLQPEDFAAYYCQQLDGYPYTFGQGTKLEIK was 8.98

The reported pKd of the binder H4H8080P (antibody, human IgG4, V domains shown, human IgG4 Fc (H4H prefix)) VH: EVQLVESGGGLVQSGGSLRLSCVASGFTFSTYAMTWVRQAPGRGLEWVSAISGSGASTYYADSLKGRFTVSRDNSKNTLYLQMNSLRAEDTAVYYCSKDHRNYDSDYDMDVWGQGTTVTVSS VL: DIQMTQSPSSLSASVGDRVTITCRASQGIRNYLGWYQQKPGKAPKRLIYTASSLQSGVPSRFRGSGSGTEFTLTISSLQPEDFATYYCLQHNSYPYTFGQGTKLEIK was 8.40

The reported pKd of the binder H4H8060P (antibody, human IgG4, V domains shown, human IgG4 Fc (H4H prefix)) VH: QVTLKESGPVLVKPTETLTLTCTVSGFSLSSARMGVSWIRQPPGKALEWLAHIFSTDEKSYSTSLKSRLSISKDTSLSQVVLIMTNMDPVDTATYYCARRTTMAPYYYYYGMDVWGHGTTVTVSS VL: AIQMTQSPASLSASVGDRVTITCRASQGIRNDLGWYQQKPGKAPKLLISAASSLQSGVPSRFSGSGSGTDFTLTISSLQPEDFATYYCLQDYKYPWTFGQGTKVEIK was 9.25

The reported pKd of the binder H4H8062P (antibody, human IgG4, V domains shown, human IgG4 Fc (H4H prefix)) VH: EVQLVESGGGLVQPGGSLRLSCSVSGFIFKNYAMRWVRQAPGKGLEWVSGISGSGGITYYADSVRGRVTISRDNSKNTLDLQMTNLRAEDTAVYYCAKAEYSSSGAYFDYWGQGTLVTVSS VL: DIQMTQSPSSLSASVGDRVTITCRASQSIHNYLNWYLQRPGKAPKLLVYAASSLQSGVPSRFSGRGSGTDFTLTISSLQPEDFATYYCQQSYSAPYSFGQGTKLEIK was 8.62
